- experimental target: Human ACC1 (Homo sapiens, UniProt Q13085)
- Construct: made in house; host or cells: SF-9 insect cells (baculovirus, pFAST-BacHTc)
- assay summary: in vitro enzymatic ACC activity assay (malachite green, absorbance at 620 nm), ACC1
- Assay type: biochemical
- measurement setup: recombinant His-tagged human ACC1, 8 μg/mL; 60 min preincubation, 20 min reaction at 30° C.
# maps each entry to its IC50

Reference set (3 entries):
[[record]]
smiles = "CCCCN1C=NC2(CCN(C(=O)c3c(NC(=O)NCC)sc4ccccc34)CC2)C1=O"
experimental_value = "> 10 µM"

[[record]]
smiles = "CCNC(=O)Nc1sc2ccccc2c1C(=O)N1CCC2(CC1)N=C(COCC(C)C)NC2=O"
experimental_value = "1 to 10 µM"

[[record]]
smiles = "CCNC(=O)Nc1sc2ccccc2c1C(=O)N1CCC2(CC1)N=C(CSC(C)C)NC2=O"
experimental_value = "1 to 10 µM"


State its IC50 on Human ACC1 (Homo sapiens, UniProt Q13085): "CCNC(=O)Nc1sc2ccccc2c1C(=O)N1CCC2(CC1)N=C(CSC)NC2=O"
1 to 10 µM

Follow-up item: "CCNC(=O)Nc1sc2ccccc2c1C(=O)N1CCC2(CC1)N=C(COc1ccccc1C#N)NC2=O"
> 10 µM

Moving on to the next compound: "CCNC(=O)Nc1sc2ccccc2c1C(=O)N1CCC2(CC1)N=C(Cn1cc(CO)nn1)NC2=O"
> 10 µM

Cool, now "CCNC(=O)Nc1sc2ccccc2c1C(=O)N1CCC2(CC1)N=C(CCC(=O)N(CC)CC)NC2=O"
1 to 10 µM

Param item: "CCNC(=O)Nc1sc2ccccc2c1C(=O)N1CCC2(CC1)N=C(Cn1cc(C3CC3)nn1)NC2=O"
1 to 10 µM

Then this compound: "CCNC(=O)Nc1sc2ccccc2c1C(=O)N1CCC2(CC1)N=C(Cn1cc(CN(C)C)nn1)NC2=O"
> 10 µM

Next compound: "CCNC(=O)Nc1sc2ccccc2c1C(=O)N1CCC2(CC1)N=C(CS(C)(=O)=O)NC2=O"
> 10 µM

Can you check "CCNC(=O)Nc1sc2ccccc2c1C(=O)N1CCC2(CC1)N=C(CCl)NC2=O" next?
> 10 µM

How about this compound: "CCNC(=O)Nc1sc2ccccc2c1C(=O)N1CCC2(CC1)N=C(CCC(=O)N1CCCCC1)NC2=O"
1 to 10 µM

Try "CCNC(=O)Nc1sc2c(OC)cccc2c1C(=O)N1CCC2(CC1)N=C(COCC(C)C)NC2=O" next.
< 1 µM

Quick one: "CCCCC1=NC2(CCN(C(=O)c3c(NC(=O)NCC)sc4ccccc34)CC2)C(=O)N1"
1 to 10 µM

Same question, "CCNC(=O)Nc1sc2c(OC)cccc2c1C(=O)N1CCC2(CC1)N=C(CCC(=O)OCC)NC2=O" this time
< 1 µM
